Source of measurements: patent US10344077

- tgt: Sm (Smith antigen)
- procedure text: AtheNA, Ab 12.5 ug/ml
assay endpoint: Athena reading (relative luminescence units)
I'd appreciate a reply containing only the number, no unit.

Field Athena reading (relative luminescence units) (entry CH240_4A/293i (antibody, from a related filing, V domains shown) VH: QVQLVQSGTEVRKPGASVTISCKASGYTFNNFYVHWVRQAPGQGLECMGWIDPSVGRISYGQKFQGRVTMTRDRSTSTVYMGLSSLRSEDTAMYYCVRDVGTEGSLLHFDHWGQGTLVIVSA VL: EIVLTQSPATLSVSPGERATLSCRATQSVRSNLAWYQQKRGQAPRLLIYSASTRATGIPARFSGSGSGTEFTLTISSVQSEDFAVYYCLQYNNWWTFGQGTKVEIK ) reads 13

Field Athena reading (relative luminescence units) (entry CH241 (antibody, from a related filing, V domains shown) VH: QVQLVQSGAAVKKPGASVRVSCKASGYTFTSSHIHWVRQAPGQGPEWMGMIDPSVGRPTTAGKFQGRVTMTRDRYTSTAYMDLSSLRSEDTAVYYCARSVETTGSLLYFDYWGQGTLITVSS VL: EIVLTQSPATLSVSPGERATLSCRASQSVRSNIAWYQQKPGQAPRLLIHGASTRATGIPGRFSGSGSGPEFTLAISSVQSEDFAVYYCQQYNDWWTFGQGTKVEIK ) reads 7
